# Test system: EKVX
# procedure-details: NCI tumour cell line growth inhibition, 48 h
Active and inactive are the calls of the source. No stated cut-off is given here; in the data, active = GI50 up to about 1.1 µM and inactive = higher.
Measured GI50, listed per entry for reference.
observation-type: GI50

• COc1ccc([C@H]2[C@H](C)C3=Nc4ccccc4CN32)cc1 = 96.8 µM (inactive)
• O=C1CSC2(CC(/C=C/c3ccccc3[N+](=O)[O-])=NN2c2cccc(S(=O)(=O)O)c2)N1c1nc2ccccc2s1 (stereo not given) = 32.3 µM (inactive)
• CCOc1ccc(N(CC(=O)N2CC(=O)Nc3cc(C)c(C)cc32)C(C)=O)cc1 = > 100 µM (inactive)
• Oc1[nH]c(Nc2cccc(Br)c2)nc2ncnc1-2 = > 100 µM (inactive)
• NC(Cc1ccc(S(=O)(=O)O)cc1)C(=O)NC(Cc1ccc(S(=O)(=O)O)cc1)C(=O)O (stereo not given) = > 100 µM (inactive)
